src = paper PMC6019134

Reported ΔTm at 10 µM by item:
STUDY SYSTEM: RPS6KA1A (Homo sapiens, UniProt Q15418)
Construct: purchased in-house (home-made panel, SGC-style construct names)
Sequence (Q15418 whole entry): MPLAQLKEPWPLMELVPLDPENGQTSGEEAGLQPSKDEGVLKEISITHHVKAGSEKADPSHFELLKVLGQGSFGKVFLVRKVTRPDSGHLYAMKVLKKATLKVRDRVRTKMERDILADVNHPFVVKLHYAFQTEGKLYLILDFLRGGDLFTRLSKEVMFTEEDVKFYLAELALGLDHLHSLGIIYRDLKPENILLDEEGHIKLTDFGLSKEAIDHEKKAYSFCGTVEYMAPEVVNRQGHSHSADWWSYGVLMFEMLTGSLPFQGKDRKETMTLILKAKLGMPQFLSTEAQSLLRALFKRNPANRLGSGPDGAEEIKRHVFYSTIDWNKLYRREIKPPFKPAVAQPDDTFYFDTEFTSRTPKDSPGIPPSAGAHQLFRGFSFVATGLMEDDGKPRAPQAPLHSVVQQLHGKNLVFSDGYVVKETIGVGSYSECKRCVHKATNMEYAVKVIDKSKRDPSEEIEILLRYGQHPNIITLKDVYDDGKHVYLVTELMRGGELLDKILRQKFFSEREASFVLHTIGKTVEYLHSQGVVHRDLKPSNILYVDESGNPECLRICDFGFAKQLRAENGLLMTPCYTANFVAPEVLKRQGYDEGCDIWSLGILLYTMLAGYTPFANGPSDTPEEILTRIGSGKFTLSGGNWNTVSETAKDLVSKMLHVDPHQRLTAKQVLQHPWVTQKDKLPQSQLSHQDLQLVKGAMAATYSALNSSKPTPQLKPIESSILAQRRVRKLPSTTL
ASSAY NAME: DSF thermal shift, kinase panel
Assay type: binding
CONDITION CONTEXT: 10 μM compound
Response body: numeric value in °C, unit text excluded.

COMPOUND | ΔTm at 10 µM, °C
CNC(=O)c1ccccc1Nc1nsnc(Nc2cccc(CS(C)(=O)=O)c2)c1=O [Compound 4] | -0.4
Cc1ccc(Nc2nsnc(Nc3ccc(C(N)=O)cc3)c2=O)cc1O [Compound 2] | 1.3
Cc1ccc(Nc2nsnc(Nc3cccc(C(N)=O)c3)c2=O)cc1O [Compound 1] | -0.6
Cc1ccc(Nc2nsnc(Nc3ccc4c(c3)CS(=O)(=O)C4)c2=O)cc1O [Compound 3] | -0.4

Now look at this one.
**Query** Look up ΔTm at 10 µM: CNC(=O)c1ccccc1Nc1nsnc(Nc2ccc(N3CCOCC3)cc2)c1=O [Compound 5]
**Result** -0.4
